Recorded normalized growth for the following molecules
Assay: chemical genetic growth profiling, strain panel (AID 1159580);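 further: tested at 20 µM; growth read once vehicle control cultures reached saturation at 30 °C; 1 = growth at the plate median or of vehicle wells; lower values mean less growth of the strain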
Conditions: S. cerevisiae deletion strains, growth OD, locus YMR263W, strain SAP30, hits give low values
About 2,000 (36%) of roughly 5,500 compounds were called active. Not shown: some 18% with an inconclusive outcome. This is one part of the list.
Give the figure by itself; no unit, no explanation.

Consider the worked cases shown below.
[
  {
    "molecule": "C=CCc1ccc(OC(=O)c2ccccc2)c(OC)c1",
    "reportedMeasurement": 0.998
  },
  {
    "molecule": "NCCC(O)C(=O)NC1CC(N)C(OC2OC(CN)C(O)C(O)C2N)C(OC2OC(CO)C(O)C2O)C1O (stereo not given)",
    "reportedMeasurement": 1.01
  },
  {
    "molecule": "CCCCCCCCCCCCCCCC(=O)NCC(COP(=O)([O-])OCC[N+](C)(C)C)OCC (stereo not given)",
    "reportedMeasurement": 0.619
  }
]

Fill in the blank: the reported normalized growth of COc1ccc(OC)c(C(O)CNC(=O)CN)c1 (stereo not given) is ____.
0.988

Fill in the blank: the reported normalized growth of CCC1(O)CC(OC2CC(N(C)C)C(OC3CC(O)C(OC4CCC(=O)C(C)O4)C(C)O3)C(C)O2)c2c(cc3c(c2O)C(=O)c2c(O)cccc2C3=O)C1C(=O)OC (stereo not given) is ____.
0.998

Fill in the blank: the reported normalized growth of CCCCCCCCCCCCCCCCCC(=O)NCC(COP(=O)([O-])OCC[N+](C)(C)C)OCC (stereo not given) is ____.
0.0519

Fill in the blank: the reported normalized growth of Cc1ccc(-c2csc(CC#N)n2)cc1C is ____.
0.974

Fill in the blank: the reported normalized growth of CCCCCCCCCCCCN1CNC(=S)NC1 is ____.
0.782

Fill in the blank: the reported normalized growth of CCCCCCCCCCCCCCCCCCNC(=O)OCC(COP(=O)([O-])OCC[n+]1ccsc1)OC (stereo not given) is ____.
1

Fill in the blank: the reported normalized growth of Nc1nc(OCc2ccccc2)c2[nH]cnc2n1 is ____.
1
